Test system: MCF7-Sh-WISP2 cells
TEST SUMMARY: MTT cell viability assay, MCF7-Sh-WISP2
Type: cell-based, human
TEST PARAMETERS: pure compounds; MTT; read-out: IC50 MCF7-Sh-WISP2
pIC50: −log10 of the molar value.
PARAMETER MEASURED: pIC50

compound="C[C@H](C(=O)O)[C@H]1CC[C@@]2(C)C3=C(C[C@@H](O)[C@]12C)[C@@]1(C)CC[C@H](O)C(C)(C)C1CC3 (relative stereo) [Compound 1, Dendryphiellide A]" recorded_value="< 4.22"
